assay: in vitro; details: human, Caco-2
Property label: Papp A→B at 10 μM (×10⁻⁶ cm/s)
Give bare numbers, in ×10⁻⁶ cm/s.

Per the record, CC1CN(C(=O)c2cc(Cc3n[nH]c(=O)c4ccccc34)ccc2F)Cc2nnc(C(F)(F)F)n21 (stereo not shown) has Papp A→B at 10 μM of 0.26

Values were extracted from patent US11191761B2.
